- Assay protocol: qHTS assay to identify small molecule antagonists of the TGF-beta/Smad signaling pathway - cell viability counter screen (AID 1346824); note: % is set by controls: 0 for no effect and ±100 for the full control effect; nearly all actives have a fitted effect of over 50% in size
- Condition details: SBE-bla HEK293T viability, CellTiter-Glo luminescence; series mostly up to 76.8 µM
Records with an inconclusive call do not appear. Calls of active or inactive are those of the source. Calls come from the whole dose curve; as a rule, active = well fitted cell-killing curve with a large enough effect in the repeat runs; inconclusive = weak or mixed curves; inactive = flat fitted curve, though single readings scatter. Where a SMILES comes first, the peptide text is derived from it.
Experimental readout: viability change, negative = cytotoxic

molecule=CC(C)C[C@@H]1[C@H](c2ccccc2)OC(=O)N1CCCN1CCCCCC1 measured=inactive
molecule="CCCCCCC1(C)CCC(=O)O1 (configuration not stated)" measured=inactive
molecule=CCn1cc(C(=O)O)c(=O)c2cnc(N3CCCC3)nc21 measured="10.1% [at 6.97 µM] (inactive)"
molecule="CC(=O)N[C@@H](CO)C(=O)N[C@@H](CC(=O)O)C(=O)N[C@@H](CCCCN)C(=O)N1CCC[C@H]1C(=O)O (Ac-SDKP-OH)" measured=inactive
molecule=CCCCCCCCCOC(=O)c1ccccc1C(=O)OCCCCCCCCC measured=inactive

Would you mind telling me what viability change, negative = cytotoxic value was observed for CC(C)c1ccc(C=O)cc1 ? inactive

Reported viability change, negative = cytotoxic for CC(=O)O[C@H]1C[C@@H]2CC[C@@]1(C)C2(C)C : what is it? inactive

# lookup: viability change, negative = cytotoxic of CCCCCC/C=C/C(=O)OC inactive

----------
- Study target: Progesterone receptor (Homo sapiens) (UniProt P06401)
- Sequence (P06401 whole entry, looked up): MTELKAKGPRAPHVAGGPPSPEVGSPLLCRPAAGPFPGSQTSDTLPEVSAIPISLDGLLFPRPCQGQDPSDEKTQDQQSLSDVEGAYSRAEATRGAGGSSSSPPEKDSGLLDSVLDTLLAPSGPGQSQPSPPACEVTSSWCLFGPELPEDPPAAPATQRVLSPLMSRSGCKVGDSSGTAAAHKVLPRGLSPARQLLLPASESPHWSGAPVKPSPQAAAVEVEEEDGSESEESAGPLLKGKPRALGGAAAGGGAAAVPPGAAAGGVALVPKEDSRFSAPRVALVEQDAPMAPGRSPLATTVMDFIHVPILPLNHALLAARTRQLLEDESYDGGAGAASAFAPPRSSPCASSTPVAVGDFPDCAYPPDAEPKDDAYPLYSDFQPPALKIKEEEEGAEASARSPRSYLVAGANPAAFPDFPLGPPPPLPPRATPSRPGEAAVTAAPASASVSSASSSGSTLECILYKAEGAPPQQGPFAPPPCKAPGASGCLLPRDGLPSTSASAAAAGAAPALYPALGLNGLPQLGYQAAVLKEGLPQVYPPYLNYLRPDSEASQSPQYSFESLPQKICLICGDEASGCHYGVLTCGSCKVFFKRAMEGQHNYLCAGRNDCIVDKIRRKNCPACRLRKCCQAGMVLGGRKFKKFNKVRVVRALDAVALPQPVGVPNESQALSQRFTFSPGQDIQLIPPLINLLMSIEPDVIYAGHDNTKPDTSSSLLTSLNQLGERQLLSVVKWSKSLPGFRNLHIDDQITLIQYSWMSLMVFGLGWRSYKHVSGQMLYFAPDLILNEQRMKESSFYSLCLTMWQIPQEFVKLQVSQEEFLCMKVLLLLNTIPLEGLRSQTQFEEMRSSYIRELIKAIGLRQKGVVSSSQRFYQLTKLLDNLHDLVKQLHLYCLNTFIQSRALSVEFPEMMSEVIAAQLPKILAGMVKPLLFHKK
- Assay protocol: qHTS assay to identify small molecule antagonists of the progesterone receptor (PR) signaling pathway (AID 1346795); note: % is set by controls: 0 for no effect and ±100 for the full control effect
- Condition details: PR-UAS-bla HEK293T, beta-lactamase FRET ratio, 16 h; series mostly up to 92.4 µM
- Source text: National Center for Advancing Translational Sciences [NCATS] NIH Chemical Genomics Center [NCGC] U.S. Environmental Protection Agency [EPA] National Institutes of Environmental Health Sciences [NIEHS] National Toxicology Program [NTP] U.S. Food and Drug Administration [FDA] Progesterone receptor (PR), a nuclear hormone receptor, plays an important role in development, metabolic homeostasis and reproduction. […]
Records with an inconclusive call do not appear. The source made the active and inactive calls. Calls follow the shape of the dose curve; as a rule, active = well fitted inhibition curve with a large enough effect in the signal ratio in the repeat runs (not every such curve was filed as active); inconclusive = weak or mixed curves; inactive = flat fitted curve, though single readings scatter; the % refers to the signal ratio.
Experimental readout: activity change, negative = inhibition

Here is how some compounds turned out for activity change, negative = inhibition.
compound="CCCC(CC)c1ccccc1 (stereo not drawn)" experimental_readout="activity change, negative = inhibition" measured=inactive
compound=CC1=C(C(=O)O)N2C(=O)[C@@H](NC(=O)[C@H](N)c3ccccc3)[C@H]2SC1 experimental_readout="activity change, negative = inhibition" measured=inactive
compound=CC(=O)O[Si](C)(OC(C)=O)OC(C)=O experimental_readout="activity change, negative = inhibition" measured=inactive
compound="OCC1CCC(CO)CC1 (stereo not drawn)" experimental_readout="activity change, negative = inhibition" measured=inactive
compound="CN(C)CCCO[C@@H]1[C@H]2OC(C)(C)O[C@H]2O[C@@H]1C(O)CO (stereo partly drawn)" experimental_readout="activity change, negative = inhibition" measured=inactive

Okay, next one:
Which activity change, negative = inhibition value is on record for CC(=O)OC1CCCCC1C(C)(C)C (stereo not drawn) ? inactive

----------
- Assay protocol: Caspase-3/7 induction in CHO-K1 cells by small molecules, qHTS assay (AID 1346980); note: % is set by controls: 0 for no effect and ±100 for the full control effect; nearly all actives have a fitted effect of over 15% in size
- Condition details: CHO-K1 caspase-3/7 induction, Caspase-Glo luminescence, 17 h; series mostly up to 92.4 µM
Activity calls are given as the source filed them. Calls follow the shape of the dose curve; as a rule, active = well fitted activation curve with a large enough effect in the repeat runs; inconclusive = weak or mixed curves; inactive = flat fitted curve, though single readings scatter.
Experimental readout: caspase-3/7 activation

molecule="O=C(O)CSCC(=O)NC1CCSC1=O (configuration not stated)" measured=inactive
molecule=CC(C)C[C@@H]1[C@H](c2ccccc2)OC(=O)N1CCCN1CCCCCC1 measured=inactive
molecule="COc1cc2c(cc1OC)C(=O)C(CC1CCN(Cc3ccccc3)CC1)C2 (configuration not stated)" measured=inactive
molecule=ONc1ccccc1 measured=inactive
molecule="C=CC(=O)OCC1CCCO1 (configuration not stated)" measured=inactive
molecule=COc1nc(N)nc2nc[nH]c12 measured=inactive

Continue with the next molecule.
Look up caspase-3/7 activation: CC(C)(C)NC[C@H](O)COc1cccc2c1CCCC2=O inactive

----------
- Study target: Estrogen receptor (Homo sapiens) (UniProt P03372)
- Sequence (P03372 whole entry, looked up): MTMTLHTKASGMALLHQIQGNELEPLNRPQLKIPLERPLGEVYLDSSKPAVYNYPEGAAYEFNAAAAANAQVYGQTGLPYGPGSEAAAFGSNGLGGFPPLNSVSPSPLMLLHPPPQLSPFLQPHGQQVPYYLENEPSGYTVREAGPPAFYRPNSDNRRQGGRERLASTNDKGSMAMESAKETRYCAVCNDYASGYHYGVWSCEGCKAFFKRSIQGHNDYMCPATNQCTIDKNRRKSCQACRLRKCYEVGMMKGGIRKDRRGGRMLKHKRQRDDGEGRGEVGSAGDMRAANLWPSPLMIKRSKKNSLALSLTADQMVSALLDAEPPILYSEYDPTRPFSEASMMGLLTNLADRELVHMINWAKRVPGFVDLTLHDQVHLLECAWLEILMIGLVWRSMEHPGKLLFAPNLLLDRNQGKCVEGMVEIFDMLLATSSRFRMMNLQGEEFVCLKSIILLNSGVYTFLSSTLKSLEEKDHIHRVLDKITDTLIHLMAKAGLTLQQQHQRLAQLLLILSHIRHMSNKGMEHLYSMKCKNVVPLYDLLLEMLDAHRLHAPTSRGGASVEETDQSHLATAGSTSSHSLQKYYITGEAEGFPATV
- Assay protocol: qHTS assay to identify small molecule antagonists of the estrogen receptor alpha (ER-alpha) signaling pathway (AID 743069); note: % is set by controls: 0 for no effect and ±100 for the full control effect
- Condition details: HEK293 ER-alpha-UAS-bla, beta-lactamase ratio, antagonist mode; series mostly up to 69.4 µM
- Source text: National Center for Advancing Translational Sciences [NCATS] NIH Chemical Genomics Center [NCGC] U.S. Environmental Protection Agency [EPA] National Institutes of Environmental Health Sciences [NIEHS] National Toxicology Program [NTP] U.S. Food and Drug Administration [FDA] Estrogen receptor (ER), a nuclear hormone receptor, plays an important role in development, metabolic homeostasis and reproduction. […]
Results filed as inconclusive are left out. Calls of active or inactive are those of the source. Calls come from the whole dose curve; as a rule, active = well fitted curve in the direction sought with a large enough effect in the signal ratio in the repeat runs (not every such curve was filed as active); inconclusive = weak or mixed curves, or effect the other way; inactive = no such curve, though single readings can be large or run the other way; the % refers to the signal ratio.
Experimental readout: activity, negative = inhibition

Sample records with activity, negative = inhibition:
compound=COC(=O)CCCCC(=O)O experimental_readout="activity, negative = inhibition" measured=inactive
compound=N#CCC(=O)NN experimental_readout="activity, negative = inhibition" measured=inactive
compound=Cc1ccc(C(=O)O)cc1[N+](=O)[O-] experimental_readout="activity, negative = inhibition" measured=inactive
compound="CC12CCC(C1)C(C)(C)C2O (stereo not drawn)" experimental_readout="activity, negative = inhibition" measured=inactive

I am curious: what activity, negative = inhibition value has been reported for C/C=C(\C)C(C)=O ? inactive

I am curious: what activity, negative = inhibition value has been reported for O=C[O][Al]([O]C=O)[O]C=O ? inactive

Entry CCC/C=C(\C=O)CC has what activity, negative = inhibition? inactive

----------
- Assay protocol: qHTS assay to identify small molecule antagonists of the glucocorticoid receptor (GR) signaling pathway - cell viability counter screen (AID 720693); note: % is set by controls: 0 for no effect and ±100 for the full control effect; nearly all actives have a fitted effect of over 55% in size
- Condition details: GR-bla HeLa viability, CellTiter-Glo luminescence, 18 h, with 5 nM dexamethasone present; series mostly up to 58.5 µM
Results filed as inconclusive are left out. Calls of active or inactive are those of the source. The call rests on the fitted dose curve; in most records, active means well fitted cell-killing curve with a large enough effect in the repeat runs; inconclusive means weak or mixed curves, or effect the other way; inactive means no such curve, though single readings can be large or run the other way.
Experimental readout: viability change, negative = cytotoxic

Below are worked cases with known answers.
compound=COc1ccc2c(c1)c1c3n2CCN(C)C3=NCC1 measured=inactive
compound="OCC(O)CN1CCN(c2ccccc2)CC1 (configuration not stated)" measured=inactive
compound=CN(C)CC/C=C1/c2ccccc2COc2ccc(CC(=O)O)cc21 measured=inactive
compound=CC1=C(C(=O)O)N2C(=O)[C@@H](NC(=O)[C@H](N)c3ccccc3)[C@H]2SC1 measured=inactive
compound=CC1=NN(c2ccc(S(=O)(=O)O)cc2)C(=O)C1 measured=inactive
compound=CC(C)CCOC(=O)c1ccccc1 measured=inactive

Next:
Sample [O]=[Mo](=[O])=[O] — what was its viability change, negative = cytotoxic? inactive

----------
- Assay protocol: qHTS assay to identify small molecule antagonists of the thyroid receptor (TR) signaling pathway (AID 743065); note: % is set by controls: 0 for no effect and ±100 for the full control effect; nearly all actives have a fitted effect of over 55% in size
- Condition details: GH3.TRE-Luc, T3-stimulated luciferase inhibition, 23.5 h; series mostly up to 70.3 µM
Records with an inconclusive call do not appear. Activity calls are given as the source filed them. Calls follow the shape of the dose curve; as a rule, active = well fitted inhibition curve with a large enough effect in the repeat runs; inconclusive = weak or mixed curves; inactive = no such curve, though single readings can be large or run the other way.
Experimental readout: outcome

Examples from the recorded data:
compound=CCOc1cccc(N)c1 experimental_readout=outcome measured=inactive
compound=CC1=NN(c2ccc(S(=O)(=O)O)cc2)C(=O)C1 experimental_readout=outcome measured=inactive
compound="CC1CC(=O)CC(C)(C)C1 (stereo not drawn)" experimental_readout=outcome measured=inactive
compound="CN(C)CCOC(=O)C(c1ccccc1)C1(O)CCCC1 (stereo not drawn)" experimental_readout=outcome measured=inactive
compound=c1ccc2c(CC3=NCCN3)cccc2c1 experimental_readout=outcome measured=inactive

Name the recorded outcome for CCC(=O)c1c(O)cc(O)cc1O . inactive

What does the record list as outcome for CCC(C)C(=O)OCCc1ccccc1 (stereo not drawn) ? inactive

Requested read-out: outcome. Entry: CC1OCCC1=O (stereo not drawn) inactive

----------
- Assay protocol: qHTS assay for identifying genotoxic compounds that show differential cytotoxicity against isogenic chicken DT40 cell lines with known DNA damage response pathways - Rev3 mutant cell line (AID 743014); note: % is set by controls: 0 for no effect and ±100 for the full control effect; nearly all actives have a fitted effect of over 55% in size
- Condition details: chicken DT40 Rev3-/- viability, CellTiter-Glo, 40 h; series mostly up to 68.4 µM
- Text: National Center for Advancing Translational Sciences [NCATS] NIH Chemical Genomics Center [NCGC] U.S. Environmental Protection Agency [EPA] National Institutes of Environmental Health Sciences [NIEHS] National Toxicology Program [NTP] U.S. Food and Drug Administration [FDA] DNA repair pathways play a critical role in cellular homeostasis by repairing DNA damage induced by endogenous processes and xenobiotics. […]
Inconclusive results are not listed. Calls of active or inactive are those of the source. The call rests on the fitted dose curve; in most records, active means well fitted cell-killing curve with a large enough effect in the repeat runs; inconclusive means weak or mixed curves, or effect the other way; inactive means no such curve, though single readings can be large or run the other way.
Could you please pick one outcome from this set? active, inactive

Example entries begin here.
molecule=CC(C)OC(=O)CCC(=O)OC(C)C class=inactive
molecule=CC(C)Nc1ccccc1 class=inactive
molecule="CN(C)CCCO[C@@H]1[C@H]2OC(C)(C)O[C@H]2O[C@@H]1C(O)CO (stereo partly specified)" class=inactive
molecule=N#Cc1ccccc1O class=inactive
molecule=C=CCSSCCC class=inactive

For O=C(O)CNC(=O)CNC(=O)CNC(=O)CSC(=O)c1ccccc1 , what call appears in the results of this test? inactive
